pIC50: −log10 of the molar value.
pIC50 tested on 3',5'-cyclic-AMP phosphodiesterase 4B (Homo sapiens, UniProt Q07343): recorded values
Sequence (Q07343 whole entry): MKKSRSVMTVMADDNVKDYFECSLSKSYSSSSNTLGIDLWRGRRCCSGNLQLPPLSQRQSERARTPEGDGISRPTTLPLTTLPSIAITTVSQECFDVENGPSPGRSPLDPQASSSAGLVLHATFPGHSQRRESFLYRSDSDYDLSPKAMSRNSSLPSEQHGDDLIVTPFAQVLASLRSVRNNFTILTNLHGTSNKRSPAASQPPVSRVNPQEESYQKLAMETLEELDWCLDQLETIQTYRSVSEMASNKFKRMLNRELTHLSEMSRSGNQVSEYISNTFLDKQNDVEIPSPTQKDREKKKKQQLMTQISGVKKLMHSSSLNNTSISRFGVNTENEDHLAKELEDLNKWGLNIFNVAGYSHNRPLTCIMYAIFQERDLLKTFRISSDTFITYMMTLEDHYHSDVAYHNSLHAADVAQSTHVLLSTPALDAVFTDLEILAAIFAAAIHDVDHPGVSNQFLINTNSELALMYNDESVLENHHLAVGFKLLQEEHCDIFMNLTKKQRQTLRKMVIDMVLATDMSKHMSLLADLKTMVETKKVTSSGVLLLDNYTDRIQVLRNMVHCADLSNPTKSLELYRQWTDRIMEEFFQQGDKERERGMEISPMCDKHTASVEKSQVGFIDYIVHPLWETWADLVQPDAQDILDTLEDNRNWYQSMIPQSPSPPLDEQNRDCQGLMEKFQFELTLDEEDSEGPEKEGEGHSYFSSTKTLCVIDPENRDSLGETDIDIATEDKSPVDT
Endpoint Name: pIC50

> print(dat)
                                  smiles.str                                    system  endpoint.name  observed.measurement
 1  COc1cc(OC)nc(N2CCN(C(=O)c3nc(-c4ccc(OC)c5nc(C(F)(F)F)ccc45)oc3CN)CC2)n1  3',5'-cyclic-AMP phosphodiesterase 4B (Homo sapiens, UniProt Q07343)          pIC50                  8.66
 2  COc1ccc(-c2nc(C(=O)N3CCN(S(=O)(=O)N(C)C)CC3)c(CN)o2)c2ccc(C(F)(F)F)nc12  3',5'-cyclic-AMP phosphodiesterase 4B (Homo sapiens, UniProt Q07343)          pIC50                  8.92
 3  COc1ccc(-c2nc(CCl)c(C)o2)c2ccc(C(F)(F)F)nc12  3',5'-cyclic-AMP phosphodiesterase 4B (Homo sapiens, UniProt Q07343)          pIC50                  6.33
 4  COc1ccc(-c2nc(C(=O)N3CCN(C(=O)c4cc(C)[nH]n4)CC3)c(CN)o2)c2ccc(C(F)(F)F)nc12  3',5'-cyclic-AMP phosphodiesterase 4B (Homo sapiens, UniProt Q07343)          pIC50                  9.30
 5  COc1ccc(-c2nc(C(N)=O)c(CN)o2)c2ccc(C(F)(F)F)nc12  3',5'-cyclic-AMP phosphodiesterase 4B (Homo sapiens, UniProt Q07343)          pIC50                  7.62
 6  COc1ccc(C(=O)Nc2c(Cl)cncc2Cl)c2ccc(C(F)(F)F)nc12  3',5'-cyclic-AMP phosphodiesterase 4B (Homo sapiens, UniProt Q07343)          pIC50                  7.70
 7  COc1ccc(-c2nc(C(=O)O)c(CN)o2)c2ccc(C(F)(F)F)nc12  3',5'-cyclic-AMP phosphodiesterase 4B (Homo sapiens, UniProt Q07343)          pIC50                  7.28
 8  COc1ccc(-c2nc(C(=O)N3CCC3)c(CN)o2)c2ccc(C(F)(F)F)nc12  3',5'-cyclic-AMP phosphodiesterase 4B (Homo sapiens, UniProt Q07343)          pIC50                  7.51
 9  COc1ccc(-c2nc(C(=O)N3CC[C@@H](NC(=O)OC(C)(C)C)C3)c(CN)o2)c2ccc(C(F)(F)F)nc12  3',5'-cyclic-AMP phosphodiesterase 4B (Homo sapiens, UniProt Q07343)          pIC50                  8.85
10  COc1ccc(-c2nc(C(=O)N3CCC4(CC3)C(=O)NCN4c3ccccc3)c(CN)o2)c2ccc(C(F)(F)F)nc12  3',5'-cyclic-AMP phosphodiesterase 4B (Homo sapiens, UniProt Q07343)          pIC50                  9.00
11  COc1ccc(-c2nc(C(N)=O)c(C)o2)c2ccc(C(F)(F)F)nc12  3',5'-cyclic-AMP phosphodiesterase 4B (Homo sapiens, UniProt Q07343)          pIC50                  7.06
12  COc1ccc(-c2nc(C=O)c(C)o2)c2ccc(C(F)(F)F)nc12  3',5'-cyclic-AMP phosphodiesterase 4B (Homo sapiens, UniProt Q07343)          pIC50                  6.51
13  CCN(CC)C(=O)c1nc(-c2ccc(OC)c3nc(C(F)(F)F)ccc23)oc1CN  3',5'-cyclic-AMP phosphodiesterase 4B (Homo sapiens, UniProt Q07343)          pIC50                  7.21
14  COc1ccc(-c2nc(CN)c(C(N)=O)o2)c2ccc(C(F)(F)F)nc12  3',5'-cyclic-AMP phosphodiesterase 4B (Homo sapiens, UniProt Q07343)          pIC50                  7.12
15  COc1ccc(-c2nc(C(=O)N3CCN(c4ncccn4)CC3)c(CN)o2)c2ccc(C(F)(F)F)nc12  3',5'-cyclic-AMP phosphodiesterase 4B (Homo sapiens, UniProt Q07343)          pIC50                  7.72
16  COc1ccc(-c2nc(C(=O)N3CCN(C(=O)c4ccccn4)CC3)c(CN)o2)c2ccc(C(F)(F)F)nc12  3',5'-cyclic-AMP phosphodiesterase 4B (Homo sapiens, UniProt Q07343)          pIC50                  9.00
17  COc1ccc(-c2nc(C(=O)N3CCN(C(=O)OC(C)(C)C)CC3)c(CN)o2)c2ccc(C(F)(F)F)nc12  3',5'-cyclic-AMP phosphodiesterase 4B (Homo sapiens, UniProt Q07343)          pIC50                  8.37
18  CNCc1oc(-c2ccc(OC)c3nc(C(F)(F)F)ccc23)nc1C(N)=O  3',5'-cyclic-AMP phosphodiesterase 4B (Homo sapiens, UniProt Q07343)          pIC50                  6.24
